Biological target: SAPK4 (Homo sapiens, UniProt O15264)
Construct: purchased Eurofins Pharma Discovery Services (KinaseProfiler; Cerep BioPrint panel)
Sequence (O15264 whole entry): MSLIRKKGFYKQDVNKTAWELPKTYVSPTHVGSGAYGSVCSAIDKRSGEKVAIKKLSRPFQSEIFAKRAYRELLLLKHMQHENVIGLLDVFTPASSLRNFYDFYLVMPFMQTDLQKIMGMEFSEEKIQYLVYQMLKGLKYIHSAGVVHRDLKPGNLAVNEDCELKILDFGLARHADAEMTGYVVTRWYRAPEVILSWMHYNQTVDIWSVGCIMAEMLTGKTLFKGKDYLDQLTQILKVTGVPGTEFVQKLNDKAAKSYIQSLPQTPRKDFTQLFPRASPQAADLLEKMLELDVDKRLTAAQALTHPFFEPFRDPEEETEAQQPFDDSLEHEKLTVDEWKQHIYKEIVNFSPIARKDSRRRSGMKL
Assay: kinase selectivity panel
Assay type: biochemical
Details: read-out: percentage of control activity (POC), SAPK4
PROPERTY MEASURED: remaining activity at 10 µM
Number first, unit second: that is the form wanted.

# annotated cases, reported remaining activity at 10 µM shown
* COc1c(NC(=O)c2ccc(C)c(-c3nnc4c(NCC(C)(C)C)nccn34)c2)cc(C(C)(C)C)cc1NS(C)(=O)=O [compound 7, reference compound] | 81%
* CC(C)(C)N1CCC(c2cc(-c3ccc(F)cc3Cl)c3cc[n+]([O-])c(-c4c(Cl)cccc4Cl)c3n2)CC1 | 96%
* Cc1ccc(C(=O)NCC2CC2)cc1-c1ccc2c(c1)NC(=O)C21CCCC1 | 94%
* Cn1cc(-c2cccc(-c3nc(C(=O)NC4C5CC6CC4CC(O)(C6)C5)c(N)nc3N)c2)cn1 (centres unmarked) | 88%

// moving on: another record for remaining activity at 10 µM
Request: Item under review: CS(=O)(=O)N1CCN(c2ccc(Nc3ncc(C(N)=O)c(NC4CC4)n3)cc2)CC1 . Reported remaining activity at 10 µM?
Response: 32%

----------
Target: PDGFRβ (Homo sapiens, UniProt P09619)
Construct: purchased Eurofins Pharma Discovery Services (KinaseProfiler; Cerep BioPrint panel)
Sequence (P09619 33-1106): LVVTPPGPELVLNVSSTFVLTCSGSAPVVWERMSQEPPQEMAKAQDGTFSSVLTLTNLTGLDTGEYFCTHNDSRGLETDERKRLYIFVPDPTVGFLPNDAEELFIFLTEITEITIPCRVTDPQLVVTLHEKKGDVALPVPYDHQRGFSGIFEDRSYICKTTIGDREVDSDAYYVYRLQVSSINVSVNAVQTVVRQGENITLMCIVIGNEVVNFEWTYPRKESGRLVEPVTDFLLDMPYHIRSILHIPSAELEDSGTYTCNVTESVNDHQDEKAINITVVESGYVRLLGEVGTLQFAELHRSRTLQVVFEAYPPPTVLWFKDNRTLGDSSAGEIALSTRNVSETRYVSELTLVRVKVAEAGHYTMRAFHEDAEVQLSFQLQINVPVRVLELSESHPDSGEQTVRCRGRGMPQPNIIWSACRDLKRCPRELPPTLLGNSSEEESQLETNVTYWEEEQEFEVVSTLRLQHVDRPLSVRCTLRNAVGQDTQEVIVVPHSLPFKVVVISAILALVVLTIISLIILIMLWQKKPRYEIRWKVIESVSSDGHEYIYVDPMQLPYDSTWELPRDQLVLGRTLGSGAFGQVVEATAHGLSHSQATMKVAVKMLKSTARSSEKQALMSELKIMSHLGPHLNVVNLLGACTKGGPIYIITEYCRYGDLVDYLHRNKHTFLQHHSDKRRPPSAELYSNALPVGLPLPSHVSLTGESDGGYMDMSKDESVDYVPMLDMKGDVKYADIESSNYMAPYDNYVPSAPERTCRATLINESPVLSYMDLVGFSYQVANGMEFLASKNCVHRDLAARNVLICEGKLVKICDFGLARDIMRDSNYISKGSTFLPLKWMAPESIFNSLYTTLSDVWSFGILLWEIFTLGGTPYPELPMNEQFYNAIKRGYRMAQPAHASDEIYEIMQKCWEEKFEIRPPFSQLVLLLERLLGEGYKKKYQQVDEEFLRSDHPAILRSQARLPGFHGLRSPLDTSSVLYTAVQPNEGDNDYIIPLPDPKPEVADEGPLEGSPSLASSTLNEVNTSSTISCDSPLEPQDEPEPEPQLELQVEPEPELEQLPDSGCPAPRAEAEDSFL
Assay: kinase selectivity panel
Format: biochemical
Details: read-out: percentage of control activity (POC), PDGFRβ
For each entry below, report its remaining activity at 10 µM value.
Answers are plain numbers, in %.

• Cn1cc(-c2cccc(-c3nc(C(=O)NC4C5CC6CC4CC(O)(C6)C5)c(N)nc3N)c2)cn1 (centres unmarked) = 63
• Cc1ccc(C(=O)NCC2CC2)cc1-c1ccc2c(c1)NC(=O)C21CCCC1 = 61
• COc1c(NC(=O)c2ccc(C)c(-c3nnc4c(NCC(C)(C)C)nccn34)c2)cc(C(C)(C)C)cc1NS(C)(=O)=O [compound 7, reference compound] = 82
• CS(=O)(=O)N1CCN(c2ccc(Nc3ncc(C(N)=O)c(NC4CC4)n3)cc2)CC1 = 16

// switching to the query molecule
Request: Tell me reported remaining activity at 10 µM for CC(C)(C)N1CCC(c2cc(-c3ccc(F)cc3Cl)c3cc[n+]([O-])c(-c4c(Cl)cccc4Cl)c3n2)CC1 , tested with PDGFRβ (Homo sapiens, UniProt P09619).
Response: 70

----------
Assign remaining activity at 10 µM to each entry below.
Biological target: T1, CDK9/cyclin T1 (Homo sapiens, UniProt P50750)
T1 construct: purchased Eurofins Pharma Discovery Services (KinaseProfiler; Cerep BioPrint panel)
T1 sequence (P50750 whole entry): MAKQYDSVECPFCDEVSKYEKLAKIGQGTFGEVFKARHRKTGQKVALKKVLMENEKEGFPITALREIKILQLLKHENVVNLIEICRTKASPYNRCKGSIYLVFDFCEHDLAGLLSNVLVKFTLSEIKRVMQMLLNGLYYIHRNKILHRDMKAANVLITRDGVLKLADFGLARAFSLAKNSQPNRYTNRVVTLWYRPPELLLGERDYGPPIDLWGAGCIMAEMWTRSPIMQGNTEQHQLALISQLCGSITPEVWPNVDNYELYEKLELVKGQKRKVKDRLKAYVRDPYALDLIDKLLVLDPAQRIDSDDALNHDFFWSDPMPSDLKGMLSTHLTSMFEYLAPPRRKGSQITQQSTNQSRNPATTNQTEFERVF
T1 sequence (O60563 whole entry partner): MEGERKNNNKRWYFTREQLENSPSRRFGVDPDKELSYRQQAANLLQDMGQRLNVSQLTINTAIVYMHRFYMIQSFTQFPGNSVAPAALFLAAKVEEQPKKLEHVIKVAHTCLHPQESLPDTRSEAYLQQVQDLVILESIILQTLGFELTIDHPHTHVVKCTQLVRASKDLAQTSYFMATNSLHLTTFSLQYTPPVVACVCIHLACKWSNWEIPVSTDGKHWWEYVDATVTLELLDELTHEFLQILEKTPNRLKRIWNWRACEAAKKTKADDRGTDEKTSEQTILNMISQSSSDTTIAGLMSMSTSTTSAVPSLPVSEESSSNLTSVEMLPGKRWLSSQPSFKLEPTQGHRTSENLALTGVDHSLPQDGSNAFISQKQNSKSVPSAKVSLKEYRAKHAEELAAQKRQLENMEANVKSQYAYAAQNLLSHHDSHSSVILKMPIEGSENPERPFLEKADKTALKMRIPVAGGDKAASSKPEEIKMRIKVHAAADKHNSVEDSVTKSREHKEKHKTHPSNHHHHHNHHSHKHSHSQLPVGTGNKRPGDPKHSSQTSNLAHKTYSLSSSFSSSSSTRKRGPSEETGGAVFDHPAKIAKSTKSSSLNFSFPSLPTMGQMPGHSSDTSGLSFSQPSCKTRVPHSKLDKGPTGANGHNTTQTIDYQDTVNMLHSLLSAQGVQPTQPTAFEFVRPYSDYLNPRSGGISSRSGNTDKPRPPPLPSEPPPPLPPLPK
Assay: kinase selectivity panel
Assay type: biochemical
Conditions: read-out: percentage of control activity (POC), CDK9/cyclin T1
Kindly format the answer as number then unit.

Some solved entries appear below for comparison.
- Cc1ccc(C(=O)NCC2CC2)cc1-c1ccc2c(c1)NC(=O)C21CCCC1: 85%
- COc1c(NC(=O)c2ccc(C)c(-c3nnc4c(NCC(C)(C)C)nccn34)c2)cc(C(C)(C)C)cc1NS(C)(=O)=O [compound 7, reference compound]: 97%
- Cn1cc(-c2cccc(-c3nc(C(=O)NC4C5CC6CC4CC(O)(C6)C5)c(N)nc3N)c2)cn1 (centres unmarked): 95%
- CC(C)(C)N1CCC(c2cc(-c3ccc(F)cc3Cl)c3cc[n+]([O-])c(-c4c(Cl)cccc4Cl)c3n2)CC1: 96%

Now for a further compound.
Request: # input compound: CS(=O)(=O)N1CCN(c2ccc(Nc3ncc(C(N)=O)c(NC4CC4)n3)cc2)CC1 ; wanted: its remaining activity at 10 µM
Response: 56%
